result type: melting point

OCCOc1ccccc1C(F)(F)F: 74 to 76 °C
O=C(O)Cc1c[nH]c2cc(Cl)ccc12: 185 to 187 °C
NC(=O)CNCC(N)=O: 129 to 131 °C
COc1ccc(NC(=O)CSCC(=O)O)cc1: 112 to 114 °C
Nc1cc(C(=O)O)ccc1-n1cnnc1: 334 to 336 °C
O=c1[nH]c(CCl)nc2cc(C(F)(F)F)ccc12: 209 to 211 °C
O=[N+]([O-])c1cccc2c1NCCC2: 69 to 71 °C
CS(=O)(=O)c1cccc(C(=O)c2ccccc2)c1: 86 to 88 °C
CC(C)CN1CCCCC1C(=O)O (stereo not drawn): 198 to 200 °C
O=C(O)c1cccn1-c1ccc(I)cc1: 199 to 201 °C

Requested field: melting point. Item: "O=C(O)c1cc(F)c(O)c(F)c1" 160 to 162 °C

Would you kindly repeat that for "Nc1ccc(C(=O)O)cc1CCCC(=O)O" ? 203 to 205 °C

// same read-out, input: "Nc1cc(C(=O)O)ccc1OC(F)F" 155 to 157 °C

Now give it for "N#Cc1cc(Cl)ccc1OCC(F)(F)F" too. 66 to 68 °C

Input "CC(C)(C)NS(=O)(=O)Cc1cccc(N)c1" 101 to 103 °C

Would you kindly repeat that for "COc1ccc(S(=O)(=O)Cl)c(Cl)c1Cl" ? 92 to 94 °C

---

result type: melting point

Examples from the recorded data:
Ic1ccccc1-c1nn[nH]n1: 217 to 219 °C
O=C(c1cccc([N+](=O)[O-])c1)N1CCNCC1: 145 to 147 °C

Param item = "COc1cc2ncn(CCCC(=O)O)c(=O)c2cc1OC" ; retrieve measured melting point. 198 to 200 °C

Subsequent entry: "Cc1ccc(NC(=O)Nc2ccccc2)cc1N" 201 to 203 °C

Again, but for O=C(O)C1CC1c1c(F)cccc1F (configuration not stated) 89 to 91 °C

// next record "Nc1cc2c(c(C(=O)O)c1)OCCO2" 213 to 215 °C

Please answer likewise for "CC(=O)Nc1ccc(Oc2nc3ccccc3o2)cc1" 164 to 166 °C

---

// melting point lookup, one value per entry

These solved cases illustrate the format of a correct answer.
NC(=O)NCc1cccnc1: 182 to 184 °C
CC(C)(C)OC(=O)N1CCC(CCC(=O)O)CC1: 99 to 101 °C
CC(=O)c1sc(C(C)(C)C)nc1C: 66 to 68 °C
COCCOc1ccc(C#N)cn1: 39 to 41 °C
Nc1ncnc2sc3c(c12)CCCC3: 239 to 241 °C
NNC(=O)c1c(Cl)cccc1Cl: 180 to 182 °C
O=[N+]([O-])c1cc(S(=O)(=O)N2CCOCC2)ccc1O: 217 to 219 °C
CCCOc1ccc(C=O)c(OCCC)c1: 58 to 60 °C
N#CC1(N2CCCC2)CCNCC1: 61 to 63 °C
NNc1ccc([N+](=O)[O-])cn1: 194 to 196 °C

Need melting point, item "N#Cc1c(Cl)nc(Cl)c(Cl)c1Cl" 148 to 150 °C

And the next one, "Nc1cc(N)c(F)cc1F" ? 111 to 113 °C

Try this compound too: "CCOC(=O)c1ccc(S(=O)(=O)N2CCNCC2)cc1" 94 to 96 °C

Again, but for CN1C(=O)CCC(C(N)=O)C1c1ccccc1 (centres undefined) 222 to 224 °C

---

result type: melting point

Some entries whose results are on file:
O=S(=O)(NC1CCNCC1)c1ccc(Cl)cc1: 189 to 191 °C
CNS(=O)(=O)c1ccc(C(=O)O)o1: 164 to 166 °C
CCOC(=O)c1cnn(CCC#N)c1: 87 to 89 °C
O=C(O)c1cc(S(=O)(=O)N2CCSCC2)c[nH]1: 238 to 240 °C

Given the compound CC(C(=O)c1ccccc1)N1C(=O)CCC1=O (stereo not drawn) , what is its reported melting point? 107 to 109 °C

Same again, this time with "O=C(O)c1cnc(COc2ccccc2)s1" 174 to 176 °C

Then "O=C(O)CCNC(=O)C1CCCCC1" ? 125 to 127 °C

And "NCCNc1cn[nH]c(=O)c1Cl" ? 195 to 197 °C

Consider next the compound "Oc1cccc2ccc(N3CCCCC3)nc12" in the same way. 69 to 71 °C

---

Quick list: melting point per entry.

O=C(O)Cc1cnn(-c2ccccc2)c1: 107 to 109 °C
O=C(O)Cn1nnc2ccccc21: 210 to 212 °C
N#Cc1cccc([N+](=O)[O-])c1O: 130 to 132 °C
O=c1[nH]cnc2nc(NCc3ccco3)sc12: 279 to 281 °C
Cc1ccc(C(=O)O)n1C: 149 to 151 °C

Could you share which melting point value was measured for "O=C(O)COc1ccc(Br)cc1Cl" ? 146 to 148 °C

Next compound: "O=C(O)c1ccccc1NS(=O)(=O)c1ccc(Cl)c([N+](=O)[O-])c1" 211 to 213 °C

Same read-out for "Cc1ccc(N)cc1S(=O)(=O)Nc1cccc(Cl)c1" ? 158 to 160 °C

Further, for "Nc1cccc(Cl)c1N1CCOCC1" ? 154 to 156 °C

Now the same for "Cc1cc(Br)cc2c(O)c(C#N)cnc12" 349 to 351 °C

How about this compound: "O=C(O)C=CC1CCCCC1" 54 to 56 °C

Field entry: "OCCc1cc2cc(Br)ccc2o1" 67 to 69 °C

---

result type: melting point

Solved entries:
Cc1cc(C#N)c(N)s1: 100 to 102 °C
CN(CC(=O)Nc1ccc(Cl)c(C(F)(F)F)c1)C(=O)CCl: 164 to 165 °C
CC(C)(C)c1ccc(C2(C(=O)O)CCCCC2)cc1: 160 to 162 °C
CC(C)(C)n1cc(C(=O)O)c(-c2ccccc2Cl)n1: 164 to 166 °C
N#CCc1nc2scc(-c3ccccc3)c2c(=O)[nH]1: 279 to 281 °C

Return reported melting point; argument: Cc1nn(C2CCS(=O)(=O)C2)c2ncc(C=O)cc12 (stereo unspecified) 149 to 151 °C

Can you handle "O=C(O)c1cnn2cccnc12" next? 203 to 205 °C

Next molecule up: "Sc1nc(-c2ccc3c(c2)OCCO3)n[nH]1" 282 to 284 °C

Next: "Cc1ccccc1-n1c(S)nc2ccccc2c1=O" 96 to 97 °C

Try this molecule next: "NCc1nnc2n1CCCC2" 99 to 101 °C

Cool, now "O=C(O)c1c(-n2cccc2)sc2c1CCCC2" 158 to 162 °C

---

result type: melting point

Known results for molecules:
CCCCC(Br)C(=O)Nc1cc(C)on1 (configuration not stated): 84 to 86 °C
NC(=NO)c1ccccc1OCc1ccccc1: 120 to 122 °C
Cc1noc2nc(-c3cc(F)ccc3F)cc(C(=O)O)c12: 237 to 239 °C
Cc1cccc2c1OCC2=O: 83 to 85 °C
COc1ccccc1C1C(C(=O)O)CCC(=O)N1c1ccc(C)cc1 (configuration not stated): 205 to 208 °C

Looking for the measured melting point of "NNc1ccc(S(N)(=O)=O)cn1" , can you help? 190 to 192 °C

Do the same for "O=C(O)c1cc(S)ccc1Cl" please 154 to 156 °C

---

Reported melting point values follow for various compounds

Look up melting point: "Cc1nnnn1C(=Cc1ccccc1)C(=O)O" 201 to 203 °C

---

Entries and their melting point

CCC(C)C(NC(=O)c1ccccc1)C(=O)O (stereo not drawn): 117 to 119 °C
CC(=O)c1cc([N+](=O)[O-])c(Cl)s1: 74 to 76 °C
O=C1CN(Cc2ccnc(Cl)c2)CCN1: 143 to 145 °C
O=C(O)c1nc(-n2cnc3ccccc32)ccc1Cl: 192 to 194 °C
O=C(O)CNC(=O)c1cccs1: 169 to 171 °C
Cc1cc(Br)cc(C)c1C#N: 68 to 70 °C
N#Cc1cc(C(F)(F)F)ccc1O: 152 to 154 °C
O=S(=O)(Nc1nccs1)c1ccc(Cl)nc1: 229 to 231 °C

Which melting point value belongs to "O=c1c2ccccc2oc2ccc([N+](=O)[O-])cc12" ? 203 to 205 °C

Note, next up: "Nc1nnc(N)s1" 192 to 194 °C

Lookup "Cc1c(C(=O)O)sc2ncn(C)c(=O)c12" 215 to 217 °C

Entry to check: CC(Cl)C(=O)NCc1ccccc1Cl (stereo not drawn) 88 to 90 °C

How about "O=C(O)c1coc(-c2ccccc2)n1" ? 209 to 211 °C

---

Below, each entry is listed alongside its reported melting point.

c1ccc(NCc2cccc3ccccc23)cc1: 54 to 56 °C

Fill in the blank: the reported melting point of CC(O)C(NC(=O)C1CC1)C(=O)O (stereo not drawn) is ____. 138 to 140 °C

Let us now turn to CNC(C(N)=O)c1cccc(Br)c1 (stereo not drawn) 111 to 113 °C

Each recorded value in this set is attributed to a melting point compilation (Tetko et al.).
